Tested on: Glioma 261
Assay: Cell proliferation assay
Assay type: cell-based, Mus musculus
Details: Mus musculus; Glioma 261, brain, murine glioma, 72 hours
Experimental Readout: IC50 (nM)
One number for each entry, in nM.

Consider the molecule CCN1CCN(Cc2ccc(Nc3ncc(F)c(-c4cc(F)c5nc(C)n(C(C)C)c5c4)n3)nc2)CC1 [Abemaciclib, abemaciclib, reference compound] and give its recorded IC50.
2520

###

Molecular target: CDK6–cyclin D1 (Homo sapiens)
Sequence (Q00534 whole entry): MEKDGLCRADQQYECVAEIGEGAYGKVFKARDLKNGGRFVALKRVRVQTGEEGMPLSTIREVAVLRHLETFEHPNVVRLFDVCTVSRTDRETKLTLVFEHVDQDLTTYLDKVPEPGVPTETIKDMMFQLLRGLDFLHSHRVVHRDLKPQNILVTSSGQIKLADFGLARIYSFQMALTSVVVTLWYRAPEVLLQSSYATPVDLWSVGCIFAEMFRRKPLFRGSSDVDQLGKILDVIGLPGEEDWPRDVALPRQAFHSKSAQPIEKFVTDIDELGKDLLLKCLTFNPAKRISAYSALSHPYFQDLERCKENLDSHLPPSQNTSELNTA
Sequence (P24385 whole entry partner): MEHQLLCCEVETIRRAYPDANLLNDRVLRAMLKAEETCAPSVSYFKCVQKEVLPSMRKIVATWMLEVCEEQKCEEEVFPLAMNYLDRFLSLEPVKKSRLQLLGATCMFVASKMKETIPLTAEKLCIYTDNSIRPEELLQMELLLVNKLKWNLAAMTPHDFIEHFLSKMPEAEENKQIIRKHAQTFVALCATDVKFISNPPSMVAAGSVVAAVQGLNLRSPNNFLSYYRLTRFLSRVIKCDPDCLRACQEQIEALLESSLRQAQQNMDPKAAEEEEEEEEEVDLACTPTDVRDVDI
Assay: LANCE Ultra TR-FRET enzymatic profiling assay
Conditions: CDK6/CyD1
pKi: −log10 of the molar value.
Experimental Readout: pKi

Consider the compound CC1=Nc2c(F)cc(-c3nc(Nc4ccc(C5CCN(C)CC5)cn4)ncc3F)cc2C12CCCC2 and give its recorded pKi.
> 10.10

###

System: KNS-81
Assay: Cell proliferation assay
Format: cell-based, Homo sapiens
Details: Homo sapiens; KNS-81, brain, glioblastoma, 72 hours
Experimental Readout: IC50 (µM)
Answers are plain numbers, in µM.

Consider the molecule CCN1CCN(Cc2ccc(Nc3ncc(F)c(-c4cc(F)c5nc(C)n(C(C)C)c5c4)n3)nc2)CC1 [Abemaciclib, abemaciclib, reference compound] and give its recorded IC50.
0.106

###

Tested on: HLE
Assay: Cell proliferation assay
Format: cell-based, Homo sapiens
Conditions: Homo sapiens, liver, hepatocellular carcinoma, 72 hours
Experimental Readout: pIC50
Answers are plain numbers, as −log10 of the molar value.

Jot down pIC50 (HLE) of CCN1CCN(Cc2ccc(Nc3ncc(F)c(-c4cc(F)c5nc(C)n(C(C)C)c5c4)n3)nc2)CC1 [Abemaciclib, abemaciclib, reference compound] .
6.41

###

System: PLC/PRF/5
Test: Cell proliferation assay
Format: cell-based, Homo sapiens
Settings: PLC/PRF/5, liver, hepatocellular carcinoma, 72 hours
Experimental Readout: IC50 (nM)
Give bare numbers, in nM.

Consider the molecule CC1=Nc2c(F)cc(-c3nc(Nc4ccc(C5CCN(C)CC5)cn4)ncc3F)cc2C12CCCC2 and give its recorded IC50.
302

###

Test system: IMR32
Test: Cell proliferation assay
Type: cell-based, Homo sapiens
Conditions: Homo sapiens, IMR-32; IMR32, brain, neuroblastoma, 72 hours
Experimental Readout: pIC50
One number for each entry, as −log10 of the molar value.

Consider the compound CCN1CCN(Cc2ccc(Nc3ncc(F)c(-c4cc(F)c5nc(C)n(C(C)C)c5c4)n3)nc2)CC1 [Abemaciclib, abemaciclib, reference compound] and give its recorded pIC50.
7.60

###

System: NCI-H23
Assay: Cell proliferation assay
Format: cell-based, Homo sapiens
Conditions: NCI-H23, lung, NSCLC, 72 hours
Experimental Readout: IC50 (µM)
Numbers only, in µM.

Consider the molecule CC1=Nc2c(F)cc(-c3nc(Nc4ccc(C5CCN(C)CC5)cn4)ncc3F)cc2C12CCCC2 and give its recorded IC50.
0.243

###

Tested on: NCI-H292
Assay: Cell proliferation assay
Format: cell-based, Homo sapiens
Details: NCI-H292, lung, mucoepidermoid pulmonary carcinoma, 72 hours
Experimental Readout: IC50 (nM)
Give bare numbers, in nM.

Consider the molecule CC1=Nc2c(F)cc(-c3nc(Nc4ccc(C5CCN(C)CC5)cn4)ncc3F)cc2C12CCCC2 and give its recorded IC50.
73

###

System: SNU-886
Assay: Cell proliferation assay
Format: cell-based, Homo sapiens
Settings: SNU-886, liver, hepatocellular carcinoma, 72 hours
Experimental Readout: pIC50
Numbers only, as −log10 of the molar value.

Consider the compound CC1=Nc2c(F)cc(-c3nc(Nc4ccc(C5CCN(C)CC5)cn4)ncc3F)cc2C12CCCC2 and give its recorded pIC50.
8.22

###

Test system: HCCC9810
Experiment: Cell proliferation assay
Assay type: cell-based, Homo sapiens
Settings: HCCC9810, liver, hepatocellular carcinoma, 72 hours
Experimental Readout: IC50 (nM)
Give bare numbers, in nM.

Consider the compound CC1=Nc2c(F)cc(-c3nc(Nc4ccc(C5CCN(C)CC5)cn4)ncc3F)cc2C12CCCC2 and give its recorded IC50.
30

###

Test system: Li-7
Test: Cell proliferation assay
Type: cell-based, Homo sapiens
Settings: Li-7, liver, hepatocellular carcinoma, 72 hours
Experimental Readout: pIC50
Answers are plain numbers, as −log10 of the molar value.

Jot down pIC50 (Li-7) of CC1=Nc2c(F)cc(-c3nc(Nc4ccc(C5CCN(C)CC5)cn4)ncc3F)cc2C12CCCC2 .
6.15

###

Test system: SNU-475
Test: Cell proliferation assay
Format: cell-based, Homo sapiens
Details: Homo sapiens; SNU-475, liver, hepatocellular carcinoma, 72 hours
Experimental Readout: IC50 (µM)
One number for each entry, in µM.

Consider the compound CCN1CCN(Cc2ccc(Nc3ncc(F)c(-c4cc(F)c5nc(C)n(C(C)C)c5c4)n3)nc2)CC1 [Abemaciclib, abemaciclib, reference compound] and give its recorded IC50.
0.195

###

Tested on: NCI-H441
Test: Cell proliferation assay
Assay type: cell-based, Homo sapiens
Conditions: Homo sapiens; NCI-H441, lung carcinoma, 72 hours
Experimental Readout: IC50 (nM)
Answers are plain numbers, in nM.

Jot down IC50 (NCI-H441) of CCN1CCN(Cc2ccc(Nc3ncc(F)c(-c4cc(F)c5nc(C)n(C(C)C)c5c4)n3)nc2)CC1 [Abemaciclib, abemaciclib, reference compound] .
40

###

Test system: SK-HEP-1
Experiment: Cell proliferation assay
Type: cell-based, Homo sapiens
Conditions: SK-HEP-1, liver, hepatocellular carcinoma, 72 hours
Experimental Readout: IC50 (nM)
Give bare numbers, in nM.

Consider the molecule CC1=Nc2c(F)cc(-c3nc(Nc4ccc(C5CCN(C)CC5)cn4)ncc3F)cc2C12CCCC2 and give its recorded IC50.
36

###

Tested on: HCCC9810
Experiment: Cell proliferation assay
Format: cell-based, Homo sapiens
Conditions: Homo sapiens; HCCC9810, liver, hepatocellular carcinoma, 72 hours
Experimental Readout: IC50 (nM)
Numbers only, in nM.

Jot down IC50 (HCCC9810) of CCN1CCN(Cc2ccc(Nc3ncc(F)c(-c4cc(F)c5nc(C)n(C(C)C)c5c4)n3)nc2)CC1 [Abemaciclib, abemaciclib, reference compound] .
71

###

Tested on: SNU-368
Assay: Cell proliferation assay
Format: cell-based, Homo sapiens
Settings: Homo sapiens; SNU-368, liver, hepatocellular carcinoma, 72 hours
Experimental Readout: IC50
Report field: quantity (unit follows the number).

Consider the compound CCN1CCN(Cc2ccc(Nc3ncc(F)c(-c4cc(F)c5nc(C)n(C(C)C)c5c4)n3)nc2)CC1 [Abemaciclib, abemaciclib, reference compound] and give its recorded IC50.
34 nM

###

Test system: U87/DK
Assay: Cell proliferation assay
Assay type: cell-based, Homo sapiens
Details: brain, glioblastoma, 72 hours
Experimental Readout: pIC50
One number for each entry, as −log10 of the molar value.

Consider the compound CC1=Nc2c(F)cc(-c3nc(Nc4ccc(C5CCN(C)CC5)cn4)ncc3F)cc2C12CCCC2 and give its recorded pIC50.
8.52

###

Tested on: HLF
Assay: Cell proliferation assay
Assay type: cell-based, Homo sapiens
Conditions: lung, epidermoid carcinoma, 72 hours
Experimental Readout: IC50 (nM)
Answers are plain numbers, in nM.

Consider the compound CC1=Nc2c(F)cc(-c3nc(Nc4ccc(C5CCN(C)CC5)cn4)ncc3F)cc2C12CCCC2 [GLR2007] and give its recorded IC50.
2010

###

Test system: NCI-H441
Assay: Cell proliferation assay
Format: cell-based, Homo sapiens
Details: NCI-H441, lung carcinoma, 72 hours
Experimental Readout: IC50 (nM)
Give bare numbers, in nM.

Consider the molecule CC1=Nc2c(F)cc(-c3nc(Nc4ccc(C5CCN(C)CC5)cn4)ncc3F)cc2C12CCCC2 and give its recorded IC50.
7

###

Tested on: SK-N-AS
Test: Cell proliferation assay
Format: cell-based, Homo sapiens
Details: brain, neuroblastoma, 72 hours
Experimental Readout: pIC50
Numbers only, as −log10 of the molar value.

Consider the molecule CC1=Nc2c(F)cc(-c3nc(Nc4ccc(C5CCN(C)CC5)cn4)ncc3F)cc2C12CCCC2 [GLR2007] and give its recorded pIC50.
7.18

###

System: Daoy
Experiment: Cell proliferation assay
Format: cell-based, Homo sapiens
Details: brain, desmoplastic cerebellar medulloblastoma, 72 hours
Experimental Readout: IC50 (µM)
One number for each entry, in µM.

Consider the molecule CC1=Nc2c(F)cc(-c3nc(Nc4ccc(C5CCN(C)CC5)cn4)ncc3F)cc2C12CCCC2 and give its recorded IC50.
3.96

###

Tested on: M059K
Test: Cell proliferation assay
Type: cell-based, Homo sapiens
Details: Homo sapiens, brain, glioblastoma, 72 hours
Experimental Readout: pIC50
Answers are plain numbers, as −log10 of the molar value.

Consider the compound CCN1CCN(Cc2ccc(Nc3ncc(F)c(-c4cc(F)c5nc(C)n(C(C)C)c5c4)n3)nc2)CC1 [Abemaciclib, abemaciclib, reference compound] and give its recorded pIC50.
6.06

###

System: COLO 205
Assay: Cell proliferation assay
Type: cell-based, Homo sapiens
Settings: Homo sapiens; COLO 205, colon carcinoma, 72 hours
Description: To quantify cell proliferation, either the nuclei of live cells were counted following staining with 4’,6-diamidino-2-phenylindole (DAPI; Sigma-Aldrich, Burlington, MA, USA), or metabolically active cells were detected using a CellTiter-Glo assay (Promega Corporation, Madison, WI, USA). […] Plates were scanned using an IN Cell Analyzer 2200 (GE Healthcare Life Sciences, Chicago, IL, USA) and the number of cells per well was recorded. […]
Experimental Readout: pIC50
One number for each entry, as −log10 of the molar value.

Jot down pIC50 (COLO 205) of CCN1CCN(Cc2ccc(Nc3ncc(F)c(-c4cc(F)c5nc(C)n(C(C)C)c5c4)n3)nc2)CC1 [Abemaciclib, abemaciclib, reference compound] .
6.36

Taken from paper PMC9403987.
